I'd be grateful if you could share measured IC50 for these entries.
Biological target: D(1A) dopamine receptor (Homo sapiens, UniProt P21728)
Sequence (P21728 whole entry): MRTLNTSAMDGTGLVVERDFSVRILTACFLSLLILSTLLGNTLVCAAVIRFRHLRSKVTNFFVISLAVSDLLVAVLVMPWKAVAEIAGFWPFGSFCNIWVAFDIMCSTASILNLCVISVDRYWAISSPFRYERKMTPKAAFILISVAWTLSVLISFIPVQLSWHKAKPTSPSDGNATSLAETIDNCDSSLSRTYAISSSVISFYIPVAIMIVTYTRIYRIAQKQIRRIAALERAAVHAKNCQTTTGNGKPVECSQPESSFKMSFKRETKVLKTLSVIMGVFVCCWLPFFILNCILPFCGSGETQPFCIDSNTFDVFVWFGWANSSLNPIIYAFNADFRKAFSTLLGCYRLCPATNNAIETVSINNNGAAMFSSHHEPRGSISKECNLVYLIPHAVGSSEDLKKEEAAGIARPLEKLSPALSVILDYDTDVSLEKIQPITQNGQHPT
Experiment: Inhibitory activity against dopamine D1

Completed entries (count: 5):
compound	measured-on	assay-value
CCCC(C(=O)c1ccc(OC)cc1)N1CCCC1 (configuration not stated)	D(1A) dopamine receptor (Homo sapiens, UniProt P21728)	> 10 µM
CCC(CC(=O)c1ccc(Cl)c(Cl)c1)N1CCCC1 (configuration not stated)	D(1A) dopamine receptor (Homo sapiens, UniProt P21728)	> 10 µM
CCC(CC(=O)c1ccc(C)cc1)N1CCCC1 (configuration not stated)	D(1A) dopamine receptor (Homo sapiens, UniProt P21728)	> 10 µM
CCCC(C(=O)c1ccc2ccccc2c1)N1CCCC1 (configuration not stated)	D(1A) dopamine receptor (Homo sapiens, UniProt P21728)	> 10 µM
CCCC(C(=O)c1ccc(NC(C)=O)cc1)N1CCCC1 (configuration not stated)	D(1A) dopamine receptor (Homo sapiens, UniProt P21728)	> 10 µM

Please go through the list and note IC50 for each compound.
1. CCCC(C(=O)c1ccc(O)cc1)N1CCCC1 (configuration not stated)
2. CCCC(C(=O)c1ccccc1C)N1CCCC1 (configuration not stated)
3. CCC[C@@H](C(=O)c1ccc(C)cc1)N1CCCC1
4. CCCC(C(=O)c1ccc(Br)cc1)N1CCCC1 (configuration not stated)
5. CCCC(C(=O)c1ccc(-c2cccs2)cc1)N1CCCC1 (configuration not stated)
6. CCCC(C(=O)c1ccc(C(F)(F)F)cc1)N1CCCC1 (configuration not stated)
7. CCCC(C(=O)c1cccc(C)c1)N1CCCC1 (configuration not stated)

A)
1: > 10 µM; 2: > 10 µM; 3: > 10 µM; 4: > 10 µM; 5: > 10 µM; 6: > 10 µM; 7: > 10 µM
